Target: TXA2 synthase (Homo sapiens)
Sequence (P24557 whole entry): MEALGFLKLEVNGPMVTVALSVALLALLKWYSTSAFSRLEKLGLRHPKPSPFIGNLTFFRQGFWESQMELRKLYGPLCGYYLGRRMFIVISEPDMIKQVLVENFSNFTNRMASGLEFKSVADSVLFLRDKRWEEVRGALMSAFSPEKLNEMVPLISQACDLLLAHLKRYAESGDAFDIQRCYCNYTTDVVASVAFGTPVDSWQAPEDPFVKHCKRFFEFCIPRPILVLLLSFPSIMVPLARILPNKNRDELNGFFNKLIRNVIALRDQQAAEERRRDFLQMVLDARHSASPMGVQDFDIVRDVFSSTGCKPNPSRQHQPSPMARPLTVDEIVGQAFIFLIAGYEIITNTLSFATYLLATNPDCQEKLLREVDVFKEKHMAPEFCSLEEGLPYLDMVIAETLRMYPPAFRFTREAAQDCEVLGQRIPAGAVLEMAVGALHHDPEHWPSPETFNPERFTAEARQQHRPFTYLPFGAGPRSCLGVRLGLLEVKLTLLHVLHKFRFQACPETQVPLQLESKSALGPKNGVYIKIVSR
ENDPOINT: pIC50
In simple prose, pIC50 is minus the logarithm base ten of a concentration in moles per litre.

Summary: O=C(O)CC/C=C\C[C@@H]1CO[C@H](c2ccccc2Cl)O[C@@H]1c1cccnc1 (relative stereo) , TXA2 synthase (Homo sapiens), pIC50 = 7.32

Where these numbers come from: patent US5166213A
